Molecular target: progesterone receptor (Oryctolagus cuniculus, UniProt P06186)
Construct: in the cytosol obtained from estrogen-primedimmature rabbit uterus; from tissue; host or cells: uterine cytosol of estrogen-primed immature female rabbits
Sequence (P06186 1-930): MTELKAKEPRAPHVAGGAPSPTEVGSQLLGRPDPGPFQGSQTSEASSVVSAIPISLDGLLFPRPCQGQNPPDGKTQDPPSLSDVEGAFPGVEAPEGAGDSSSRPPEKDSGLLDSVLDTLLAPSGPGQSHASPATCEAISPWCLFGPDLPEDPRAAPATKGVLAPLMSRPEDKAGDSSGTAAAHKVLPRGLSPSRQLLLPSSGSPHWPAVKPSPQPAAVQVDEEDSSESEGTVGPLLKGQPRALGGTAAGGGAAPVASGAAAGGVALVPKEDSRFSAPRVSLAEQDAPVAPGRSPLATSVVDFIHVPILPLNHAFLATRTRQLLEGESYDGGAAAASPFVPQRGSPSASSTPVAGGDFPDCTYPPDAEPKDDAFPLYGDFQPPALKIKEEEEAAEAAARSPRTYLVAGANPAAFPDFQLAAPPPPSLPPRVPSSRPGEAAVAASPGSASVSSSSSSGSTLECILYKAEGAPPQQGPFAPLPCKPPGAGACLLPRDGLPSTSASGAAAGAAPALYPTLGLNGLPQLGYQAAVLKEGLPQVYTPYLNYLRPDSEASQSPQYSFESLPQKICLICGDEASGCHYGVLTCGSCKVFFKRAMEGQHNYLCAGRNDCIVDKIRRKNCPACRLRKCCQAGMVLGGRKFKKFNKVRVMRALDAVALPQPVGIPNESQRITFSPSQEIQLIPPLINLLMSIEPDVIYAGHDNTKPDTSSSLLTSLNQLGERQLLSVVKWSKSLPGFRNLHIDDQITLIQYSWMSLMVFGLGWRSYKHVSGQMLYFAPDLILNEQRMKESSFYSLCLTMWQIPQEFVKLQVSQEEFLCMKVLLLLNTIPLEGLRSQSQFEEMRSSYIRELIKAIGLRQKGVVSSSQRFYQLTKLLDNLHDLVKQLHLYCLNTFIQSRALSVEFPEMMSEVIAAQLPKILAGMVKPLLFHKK
Assay: Relative binding affinity to progesterone receptor in uterine cytosol (displacement of tritium-labeled progesterone)
Set-up: species or system rabbit (estrogen-primed immature female)
Conditions: relative to progesterone (=100); rabbit uterine cytosol
Protocol: The in vitro activity of the subject compounds was determined by measuring the binding affinities (RBA) of these compounds relative to progesterone for the progesterone receptor in the cytosol obtained from estrogen-primedimmature rabbit uterus and by measuring the RBA relative to dexamethasone for the glucocorticoid receptor from thymus of adrenalectomized rats. […]
Can you tell me Progestin RBA for the items I'm about to list?
Numbers only.

CC(=O)O[C@]1(C(C)=O)CC[C@H]2[C@@H]3CCC4=CC(=O)CCC4=C3[C@@H](c3ccc(N(C)C)cc3)C[C@@]21C ... 47

Your task in this section: give Progestin RBA for each listed record.
1. CC(=O)O[C@]1(C(C)=O)CC[C@H]2[C@@H]3C[C@@H](C)C4=CC(=O)CCC4=C3[C@@H](c3ccc(N(C)C)cc3)C[C@@]21C
2. CC(=O)C1=CC[C@H]2[C@@H]3CCC4=CC(=O)CCC4=C3[C@@H](c3ccc(N(C)C)cc3)C[C@]12C
3. CC[C@@H]1C[C@H]2[C@@H]3CCC4=CC(=O)CCC4=C3[C@@H](c3ccc(N(C)C)cc3)C[C@]2(C)[C@H]1C(C)=O
4. CC[C@@H]1C[C@H]2[C@@H]3C[C@@H](C)C4=CC(=O)CCC4=C3[C@@H](c3ccc(N(C)C)cc3)C[C@]2(C)[C@H]1C(C)=O
5. CC(=O)O[C@]1(C(C)=O)CC[C@H]2[C@@H]3C[C@H](C)C4=CC(=O)CCC4=C3[C@@H](c3ccc(N(C)C)cc3)C[C@@]21C

stdout:
1. 15
2. 8
3. 80
4. 48
5. 43
